# SYSTEM UNDER TEST: Endonuclease 8-like 1 (Homo sapiens) (UniProt Q96FI4);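 further: fluorescence at 594 nm from quenched duplex DNA oligonucleotides released by NEIL1 cleavage and strand separation, reported as reduction of this enzyme activity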
# Sequence (Q96FI4 whole entry): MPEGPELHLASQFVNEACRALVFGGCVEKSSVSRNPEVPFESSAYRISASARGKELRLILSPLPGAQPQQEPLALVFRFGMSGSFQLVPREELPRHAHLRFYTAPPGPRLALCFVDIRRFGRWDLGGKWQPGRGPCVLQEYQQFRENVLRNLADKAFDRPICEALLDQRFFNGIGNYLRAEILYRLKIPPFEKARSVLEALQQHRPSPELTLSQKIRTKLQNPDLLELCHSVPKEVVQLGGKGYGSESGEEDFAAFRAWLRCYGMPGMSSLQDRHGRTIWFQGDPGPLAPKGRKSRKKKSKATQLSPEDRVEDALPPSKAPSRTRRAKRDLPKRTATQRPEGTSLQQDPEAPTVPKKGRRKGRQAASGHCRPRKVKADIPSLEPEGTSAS
# RUN PARAMETERS: Compound Concentration 1.0 uM, Hit No
# Description: Inhibition of NEIL1 by quantifying inhibition of NEIL1-mediated cleavage and dissociation of quenched duplex DNA oligonucleotides, measured as fluorescence at 594 nm.
PROPERTY MEASURED: inhibition (%)

C[C@@H](Oc1cc(-n2cnc3ccc(CN4CCN(C)CC4)cc32)sc1C(N)=O)c1ccccc1C(F)(F)F    -0.655
Nc1ncc2c(n1)-c1c([nH]c3ccc(C4CC4)cc13)CCCC2    2.52
c1ccc(-c2oc3ncnc(NC[C@@H]4CCCO4)c3c2-c2ccccc2)cc1    -7.66
CN(c1ccnc(CNc2nc(Nc3ccc4c(c3)CC(=O)N4)ncc2C(F)(F)F)n1)S(C)(=O)=O    1.52
COc1cc(N[C@@H]2CCCC[C@]2(O)C(F)(F)F)ccc1F    1.98
Cc1cccc(-c2[nH]c(CNc3ccccc3F)nc2-c2ccc3ncnn3c2)n1    -2.11
CC(C)CC(=O)N1CCc2nc(-c3ccc(Br)cc3)nc(N(C)Cc3ccccc3)c2C1    -9.83
O=C(NCCCC1CCCCC1)c1ccc(CNC(=O)c2cnn(-c3ccccc3)c2C(F)(F)F)cc1    -2.11
C[C@H](NC(=O)c1cn(C2(C#N)CC2)cn1)C(=O)Nc1nc(-c2cccc(-c3ccn(C)n3)c2)cs1    -5.74
